conditions: in ethylbenzene, 300.9 K
quantity kind: solubility (mole fraction)

{"substance smiles": "CCCCCCCCCCCCCCCCCCCCCCC", "assay value": 0.184}

====

conditions: in ethylbenzene, 292.74 K

{"substance smiles": "CCCCCCCCCCCCCCCCCCCCCCCC", "solubility (mole fraction)": 0.0346}

====

conditions: in ethylbenzene, 295.72 K

{"substance smiles": "CCCCCCCCCCCCCCCCCCCCC", "solubility (mole fraction)": 0.263}

====

settings: in ethylbenzene, 262.5 K

{"substance smiles": "CCCCCCCCCCCCCCCCCCCCC", "solubility (mole fraction)": 0.0047}

====

details: in ethylbenzene, 299.86 K

{"substance smiles": "CCCCCCCCCCCCCCCCCCCCCC", "solubility (mole fraction)": 0.171}

The values you see were collected from BigSolDB 2.1.
